- Test system: primary human T-cells
- PROTOCOL SUMMARY: Proliferation assay after 5 days (CellTiter-Glo, CD3 stimulation; PBS counter screen)
- Type: cell-based
- COND: Homo sapiens, T-cell, 120 h, CD3 stimulation, 5 days; normalized to reference compound A1 as stimulator control = 100%, DMSO neutral control; read-out: Emax proliferation (% activation)

[
  {
    "COMPOUND": "CC(C)(F)c1nnc(-c2cc3c(cc2F)S(=O)(=O)C[C@H](N)C(=O)N3Cc2ccc(Cl)cc2)o1 [Example 70]",
    "Emax / %": 255
  },
  {
    "COMPOUND": "CC(C)(CO)c1nnc(-c2cc3c(cc2F)S(=O)(=O)C[C@H](N)C(=O)N3Cc2ccc(C#N)cc2)o1 [Example 188]",
    "Emax / %": 29
  },
  {
    "COMPOUND": "N[C@H]1CS(=O)(=O)c2cc(F)c(-c3nnc(N4CCC4)o3)cc2N(Cc2ccc(Cl)cc2)C1=O [Example 191]",
    "Emax / %": 184
  },
  {
    "COMPOUND": "CN(C)C(=O)c1nc(-c2cc3c(cc2F)S(=O)(=O)C[C@H](N)C(=O)N3Cc2ccc(OC(F)(F)F)cc2)no1 [Example 328]",
    "Emax / %": 120
  },
  {
    "COMPOUND": "N[C@H]1CS(=O)(=O)c2cc(F)c(-c3nnc(C(=O)N4[C@@H]5CCC[C@H]4CC5)o3)cc2N(Cc2ccc(Cl)cc2)C1=O [Example 96]",
    "Emax / %": 46
  },
  {
    "COMPOUND": "CC(=O)N1CCCC(n2nnc(-c3cc4c(cc3F)S(=O)(=O)C[C@H](N)C(=O)N4Cc3ccc(Cl)cc3)n2)C1 (stereo partly drawn) [Example 13]",
    "Emax / %": 87
  },
  {
    "COMPOUND": "C#CCOCCOCCOCCCC(C)(C)c1nc(-c2cc3c(cc2F)S(=O)(=O)C[C@H](N)C(=O)N3Cc2ccc(Cl)cc2)no1 [Example 327]",
    "Emax / %": 104
  },
  {
    "COMPOUND": "N[C@H]1CS(=O)(=O)c2cc(F)c(-c3nnc(NC4CNCC(F)(F)C4)o3)cc2N(Cc2ccc(Cl)cc2)C1=O (stereo partly drawn) [Example 489]",
    "Emax / %": 55
  },
  {
    "COMPOUND": "CC(C)(C)c1nnc(-c2cc3c(cc2F)S(=O)(=O)C[C@H](NC(=O)CCCN)C(=O)N3Cc2ccc(Cl)cc2)o1 [Example 267]",
    "Emax / %": 74
  },
  {
    "COMPOUND": "CC1(c2nnc(-c3cc4c(cc3F)S(=O)(=O)C[C@H](N)C(=O)N4Cc3ccc(Cl)cc3)o2)CCCO1 (stereo partly drawn) [Example 88]",
    "Emax / %": 97
  },
  {
    "COMPOUND": "COC(=O)N1CCC(c2nnc(-c3ccc4c(c3)N(Cc3ccc(OC(F)(F)F)cc3)C(=O)[C@@H](N)CS4(=O)=O)o2)C1 (stereo partly drawn) [Example 423]",
    "Emax / %": 78
  },
  {
    "COMPOUND": "CC(C)(CNC1CCOC1)c1nnc(-c2cc3c(cc2F)S(=O)(=O)C[C@H](N)C(=O)N3Cc2ccc(Cl)cc2)o1 (stereo partly drawn) [Example 157]",
    "Emax / %": 106
  },
  {
    "COMPOUND": "CCc1noc(-c2cc3c(cc2F)S(=O)(=O)C[C@H](N)C(=O)N3Cc2ccc(Cl)cc2)n1 [Example 41]",
    "Emax / %": 61
  },
  {
    "COMPOUND": "CC(C)(C#N)c1nnc(-c2cc3c(cc2F)S(=O)(=O)C[C@H](N)C(=O)N3Cc2ccc(OC(F)(F)F)cc2)o1 [Example 59]",
    "Emax / %": 94
  },
  {
    "COMPOUND": "CC(C)(C)n1nnc(-c2cc3c(cc2F)S(=O)(=O)C[C@H](NC(=O)CN)C(=O)N3Cc2ccc(Cl)cc2)n1 [Example 29]",
    "Emax / %": 172
  },
  {
    "COMPOUND": "CN1CC(c2nc(-c3cc4c(cc3F)S(=O)(=O)C[C@H](N)C(=O)N4Cc3ccc(Cl)cc3)no2)CC(F)(F)C1 (stereo partly drawn) [Example 323]",
    "Emax / %": 109
  },
  {
    "COMPOUND": "CC(=O)N1CC(n2nnc(-c3cc4c(cc3F)S(=O)(=O)C[C@H](N)C(=O)N4Cc3ccc(Cl)cc3)n2)CC(F)(F)C1 (stereo partly drawn) [Example 24]",
    "Emax / %": 95
  },
  {
    "COMPOUND": "CNC(C)(C)c1nnc(-c2ccc3c(c2)N(Cc2ccc(OC(F)(F)F)cc2)C(=O)[C@@H](N)CS3(=O)=O)o1 [Example 419]",
    "Emax / %": 62
  }
]
